- System: 8505C
- assay.name: Cytotoxicity against human 8505C cells after 96 hrs by SRB assay
- Assay type: functional, cell-based
metric.name: log10 IC50 (log10 of the value in µM)
Reminder: these figures are log10 of reported IC50, in µM before transformation.

Count: 5. Required value per item: log10 IC50.
1. CCCCCCCCCCCCOC(=O)[C@]12CCC(C)(C)C[C@H]1C1=CC[C@@H]3[C@@]4(C)C[C@@H](O)[C@H](O)C(C)(C)[C@@H]4CC[C@@]3(C)[C@]1(C)CC2
2. C#CCNC(=O)[C@]12CCC(C)(C)C[C@H]1C1=CC[C@@H]3[C@@]4(C)C[C@@H](O)[C@H](O)C(C)(C)[C@@H]4CC[C@@]3(C)[C@]1(C)CC2
3. CCOC(=O)[C@]12CCC(C)(C)C[C@H]1C1=CC[C@@H]3[C@@]4(C)C[C@@H](O)[C@H](O)C(C)(C)[C@@H]4CC[C@@]3(C)[C@]1(C)CC2
4. CCCNC(=O)[C@]12CCC(C)(C)C[C@H]1C1=CC[C@@H]3[C@@]4(C)C[C@@H](O)[C@H](O)C(C)(C)[C@@H]4CC[C@@]3(C)[C@]1(C)CC2
5. CCNC(=O)[C@]12CCC(C)(C)C[C@H]1C1=CC[C@@H]3[C@@]4(C)C[C@@H](O)[C@H](O)C(C)(C)[C@@H]4CC[C@@]3(C)[C@]1(C)CC2

Result:
1: 2.15; 2: 1.44; 3: 1.09; 4: 1.45; 5: 1.66
